# System: M. diernhoferi (ATCC 19340)
# protocolSummary: Microbroth dilution antibiotic susceptibility assay
# Format: cell-based
# setupConditions: Mycolicibacterium diernhoferi, ATCC19340; microbroth dilution; read-out: MIC M. diernhoferi
observedProperty: MIC

In [3]: df
Out[3]:
                                   molecule  endpointresult
0  COc1c(C)c2c3c(c1OS(=O)(=O)C(F)(F)F)[C@@H](C)CC[C@@H]3[C@@H](C)C[C@H]2C=C(C)C [Compound 11]      > 64 µg/mL
1  CCCCCOc1c(C)c2c3c(c1O)[C@@H](C)CC[C@@H]3[C@@H](C)C[C@H]2C=C(C)C [Compound 8, 10-Pentoxy-pseudopterosin G–J Aglycone]     > 128 µg/mL
2  COc1ccc(CC=C(C)C)c(OC)c1O[C@@H]1O[C@H](CO)[C@H](O)[C@H](O)[C@H]1O [Compound 20]     > 128 µg/mL
3  COc1c(C)c2c3c(c1OC)[C@@H](C)CC[C@@H]3[C@@H](C)C[C@H]2C=C(C)C [Compound 10]      > 64 µg/mL
